B1: glmS ribozyme (parent)
chain: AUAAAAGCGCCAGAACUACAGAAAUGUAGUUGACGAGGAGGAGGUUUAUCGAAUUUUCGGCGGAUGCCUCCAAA

- Variants of: B1
- measurement protocol: kcat; higher = faster cleavage; RNA array
- cond: with glucosamine-6-phosphate
Variants at the floor of the assay were thinned out.
Exercise: state measured kcat for each of the variants provided.
Value expressed in s⁻¹; do not type the unit.

Item under review: AUAAAAGCGCCAGGACUACAGAAAUGUAGUUGACGAAGAGGAGGUUUAUCGAAUUUUCGGCGGAUGCCUCCAAA [A14G G37A] . Reported kcat? 0.00833

Item under review: AUAAAAGCGCCAGAAUUACAGAAAUGUAGUUAGCGAGGAGGAGGUUUAUCGAAUUUUUGGCGGAUGCCUGCAAA [C16U G32A A33G C58U C70G] . Reported kcat? 3.69e-05

Item under review: AUAAAAGCGCCAGAACUACAGAAAUGUAGUUGACGAGGAGGAGGUUUAUCGAAUUUUCGGCGGAUGCGUUCAAA [C68G C70U] . Reported kcat? 2.04e-05

Item under review: AUAAAAGCGCCAGCACUACAGAAAUGUAGUAGACGAGGAGGAGGUUUAUCGAAUUUUCGGCGGAUGCCUCCAAA [A14C U31A] . Reported kcat? 0.0083

Item under review: AUAAAAGCGCCAGAACUACAGAAAUGUAGUUGACGAGGAGGAGGUUUAUCGAAUUUGCGGGGGAUGCCUCCAAA [U57G C61G] . Reported kcat? 1.3e-05

Item under review: AUAAAAGCGCAAGAACUACAGAAAUGUAGUUGACGAGGAGGAGGUUUAUCGAAUUUUCGGCGGAUGCCUCUAAA [C11A C71U] . Reported kcat? 0.000122

Item under review: AUAAAAGCGCCAGAACUACAGAAAUGUAGUUGACGAGGAGGAGGUUUAUCGAUUUUUCGGCGGAGGCCUCCAAA [A53U U65G] . Reported kcat? 0.00461
